system-under-test: rNav1.2 sodium channels (Rattus norvegicus, UniProt P04775)
Construct: host or cells: HEK-293
Sequence (P04775 whole entry): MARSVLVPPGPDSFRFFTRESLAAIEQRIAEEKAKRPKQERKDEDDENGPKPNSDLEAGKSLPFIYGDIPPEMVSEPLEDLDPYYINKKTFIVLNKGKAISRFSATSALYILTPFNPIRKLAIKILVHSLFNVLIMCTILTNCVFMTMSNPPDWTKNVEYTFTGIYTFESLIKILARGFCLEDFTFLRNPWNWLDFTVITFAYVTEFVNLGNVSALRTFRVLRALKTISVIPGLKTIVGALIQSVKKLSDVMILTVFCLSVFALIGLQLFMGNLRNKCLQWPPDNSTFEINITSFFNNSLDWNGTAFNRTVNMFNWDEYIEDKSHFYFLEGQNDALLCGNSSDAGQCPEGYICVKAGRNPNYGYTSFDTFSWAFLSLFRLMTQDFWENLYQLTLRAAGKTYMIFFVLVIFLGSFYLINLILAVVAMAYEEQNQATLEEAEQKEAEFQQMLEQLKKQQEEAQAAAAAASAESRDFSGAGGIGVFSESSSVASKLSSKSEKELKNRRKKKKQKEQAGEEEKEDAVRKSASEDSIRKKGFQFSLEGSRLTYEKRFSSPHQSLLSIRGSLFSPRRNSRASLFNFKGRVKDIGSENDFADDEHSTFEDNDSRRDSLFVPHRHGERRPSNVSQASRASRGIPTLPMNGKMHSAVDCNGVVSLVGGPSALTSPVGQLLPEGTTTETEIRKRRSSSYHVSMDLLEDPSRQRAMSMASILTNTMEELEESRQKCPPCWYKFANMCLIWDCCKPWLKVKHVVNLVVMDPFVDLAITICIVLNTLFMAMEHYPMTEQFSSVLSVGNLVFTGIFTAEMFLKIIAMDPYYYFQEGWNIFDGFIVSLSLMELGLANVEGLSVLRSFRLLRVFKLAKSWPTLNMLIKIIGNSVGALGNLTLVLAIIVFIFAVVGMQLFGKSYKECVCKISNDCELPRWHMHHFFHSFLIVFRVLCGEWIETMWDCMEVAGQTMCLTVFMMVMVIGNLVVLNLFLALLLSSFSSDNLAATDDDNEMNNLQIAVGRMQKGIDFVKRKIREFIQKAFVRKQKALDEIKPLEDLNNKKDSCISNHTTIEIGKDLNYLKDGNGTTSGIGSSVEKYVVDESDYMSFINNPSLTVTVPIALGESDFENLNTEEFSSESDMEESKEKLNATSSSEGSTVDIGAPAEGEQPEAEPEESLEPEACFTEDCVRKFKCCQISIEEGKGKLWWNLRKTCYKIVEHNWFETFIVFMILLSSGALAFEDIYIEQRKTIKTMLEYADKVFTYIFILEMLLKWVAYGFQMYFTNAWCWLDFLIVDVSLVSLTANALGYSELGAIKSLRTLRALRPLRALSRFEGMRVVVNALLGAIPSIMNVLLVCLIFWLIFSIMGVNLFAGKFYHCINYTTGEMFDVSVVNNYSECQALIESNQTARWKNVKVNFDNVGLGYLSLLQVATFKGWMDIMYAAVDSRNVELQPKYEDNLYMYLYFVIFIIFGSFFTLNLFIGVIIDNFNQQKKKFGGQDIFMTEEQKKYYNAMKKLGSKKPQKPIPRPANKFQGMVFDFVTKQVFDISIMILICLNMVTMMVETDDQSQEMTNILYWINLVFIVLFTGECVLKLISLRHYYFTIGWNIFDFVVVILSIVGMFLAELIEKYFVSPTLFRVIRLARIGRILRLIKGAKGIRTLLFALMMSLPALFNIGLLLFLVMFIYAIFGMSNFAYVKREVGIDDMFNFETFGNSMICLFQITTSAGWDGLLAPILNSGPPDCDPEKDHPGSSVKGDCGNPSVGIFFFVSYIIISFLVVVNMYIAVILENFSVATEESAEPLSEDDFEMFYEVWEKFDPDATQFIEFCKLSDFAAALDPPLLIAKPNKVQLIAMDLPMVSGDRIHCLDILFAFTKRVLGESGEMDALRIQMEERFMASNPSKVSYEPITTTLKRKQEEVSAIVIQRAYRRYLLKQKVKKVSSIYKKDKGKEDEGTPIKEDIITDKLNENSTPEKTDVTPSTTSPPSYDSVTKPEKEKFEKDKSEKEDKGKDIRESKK
protocol-text: QPatch automated patch clamp, inhibition of sodium currents evoked by 5 Hz trains at three extracellular pH values
Format: cell-based
test-parameters: pH 6.0/8.6; cc 300 mM
Protocol: HEK-293 cells stably expressing rNav1.2 sodium channels were obtained from NeuroSearch (Ballerup, Denmark). The cells were grown in Dulbecco's modified Eagle medium supplemented with 10% FBS. Prior to use, the cells were trypsinized and subsequently kept in suspension in the QPatch cell storage facility in CHO-S- SFM-II medium. […] Data were sampled at a frequency of 25 kHz and filtered at 5 kHz. Junction potential was calculated to be −11 mV and was corrected for. […]
The following compounds are listed with their measured Ratio Tau Offset values.

Nc1nnc(-c2cccc(Cl)c2Cl)c(N)n1 = 0.809
NC(=O)N1c2ccccc2C=Cc2ccccc21 [carbamazepine] = 1.490
O=C1NC(=O)C(c2ccccc2)(c2ccccc2)N1 = 0.993

QUERY: Tell me its Ratio Tau Offset given O=C(NCC1CCCCN1)c1cc(OCC(F)(F)F)ccc1OCC(F)(F)F (centres unmarked) [flecainide] as the entry.
RESULT: 3.109

QUERY: Tell me its Ratio Tau Offset given Cc1cccc(C)c1OCC(C)N (centres unmarked) as the entry.
RESULT: 0.938

====

The following compounds are listed with their measured Ratio Reversibility values.
system-under-test: rNav1.2 sodium channels (Rattus norvegicus, UniProt P04775)
Construct: host or cells: HEK-293
protocol-text: QPatch automated patch clamp, inhibition of sodium currents evoked by 5 Hz trains at three extracellular pH values
Type: cell-based
test-parameters: pH 6.0/8.6; cc 300 mM
Number only, no unit.

Reference set, count: 4
NC(=O)N1c2ccccc2C=Cc2ccccc21 [carbamazepine] = 0.955
Nc1nnc(-c2cccc(Cl)c2Cl)c(N)n1 = 0.930
Cc1cccc(C)c1OCC(C)N (centres unmarked) = 1.300
O=C1NC(=O)C(c2ccccc2)(c2ccccc2)N1 = 1.313

As a next step, examine the compound that follows.
QUERY: Tell me its Ratio Reversibility given O=C(NCC1CCCCN1)c1cc(OCC(F)(F)F)ccc1OCC(F)(F)F (centres unmarked) [flecainide] as the entry.
RESULT: 2.794

====

system-under-test: rNav1.2 sodium channels (Rattus norvegicus, UniProt P04775)
Construct: host or cells: HEK-293
protocol-text: QPatch automated patch clamp, inhibition of sodium currents evoked by 5 Hz trains at three extracellular pH values
Format: cell-based
test-parameters: pH 7.3/8.6; cc 100 mM
property-name: Ratio Tau Offset
Number only, no unit.

Reference set, count: 2
COc1ccccc1OCC(O)CN1CCN(CC(=O)Nc2c(C)cccc2C)CC1 (stereo not drawn) [ranolazine] = 1.360
CNCCC(Oc1ccccc1OC)c1ccccc1 (stereo not drawn) [nisoxetine] = 1.489

QUERY: Tell me its Ratio Tau Offset given Cc1ccc(C(=O)C(C)CN2CCCCC2)cc1 (stereo not drawn) [tolperisone] as the entry.
RESULT: 1.024

====

system-under-test: rNav1.2 sodium channels (Rattus norvegicus)
Construct: host or cells: HEK-293
protocol-text: QPatch automated patch clamp, inhibition of sodium currents evoked by 5 Hz trains at three extracellular pH values
Assay type: cell-based
test-parameters: pH=8.6; cc 30 mM
Classification field: satisfied = Reversibility at or over 0.4; not satisfied = Reversibility under 0.4.

The following compounds have reported results that may help.
Cc1nc2sccn2c(=O)c1CCN1CCC(=C(c2ccc(F)cc2)c2ccc(F)cc2)CC1 [ritanserin] = not satisfied
CNCCCN1c2ccccc2CCc2ccccc21 [desipramine] = not satisfied
CN(C)CCCN1c2ccccc2Sc2ccc(Cl)cc21 [chlorpromazine] = not satisfied

QUERY: Determine whether measured Reversibility meets or exceeds 0.4 for CCc1nn(CCCN2CCN(c3cccc(Cl)c3)CC2)c(=O)n1CCOc1ccccc1 [nefazodone]
RESULT: satisfied

QUERY: Determine whether measured Reversibility meets or exceeds 0.4 for Fc1ccc([C@@H]2CCNC[C@H]2COc2ccc3c(c2)OCO3)cc1 [paroxetine]
RESULT: not satisfied

QUERY: Determine whether measured Reversibility meets or exceeds 0.4 for CC12CC3CC(C)(C1)CC(N)(C3)C2 [memantine]
RESULT: satisfied

QUERY: Determine whether measured Reversibility meets or exceeds 0.4 for Nc1nc2ccc(OC(F)(F)F)cc2s1 [riluzole]
RESULT: satisfied

QUERY: Determine whether measured Reversibility meets or exceeds 0.4 for CN(C)CCC=C1c2ccccc2CCc2ccccc21 [amitriptyline]
RESULT: not satisfied

====

system-under-test: rNav1.2 sodium channels (Rattus norvegicus, UniProt P04775)
Construct: host or cells: HEK-293
protocol-text: QPatch automated patch clamp, inhibition of sodium currents evoked by 5 Hz trains at three extracellular pH values
Type: cell-based
test-parameters: pH 6.0/8.6; cc 300 mM
property-name: Ratio Tau Onset
Number only, no unit.

NC(=O)N1c2ccccc2C=Cc2ccccc21 [carbamazepine] = 0.800
O=C1NC(=O)C(c2ccccc2)(c2ccccc2)N1 = 0.650
O=C(NCC1CCCCN1)c1cc(OCC(F)(F)F)ccc1OCC(F)(F)F (centres unmarked) [flecainide] = 7.632

QUERY: Tell me its Ratio Tau Onset given Cc1cccc(C)c1OCC(C)N (centres unmarked) as the entry.
RESULT: 1.411

QUERY: Tell me its Ratio Tau Onset given Nc1nnc(-c2cccc(Cl)c2Cl)c(N)n1 as the entry.
RESULT: 0.713

====

system-under-test: rNav1.2 sodium channels (Rattus norvegicus, UniProt P04775)
Construct: host or cells: HEK-293
protocol-text: QPatch automated patch clamp, inhibition of sodium currents evoked by 5 Hz trains at three extracellular pH values
Type: cell-based
test-parameters: pH 7.3/8.6; cc 100 mM
The following compounds are listed with their measured Ratio Tau Onset values.
Number only, no unit.

Reference set, count: 3
CCCCN1CCCCC1C(=O)Nc1c(C)cccc1C (stereo not drawn) = 1.034
COc1ccc(C(CN(C)C)C2(O)CCCCC2)cc1 (stereo not drawn) = 0.857
CC12CC3CC(C)(C1)CC(N)(C3)C2 [memantine] = 0.816

QUERY: Tell me its Ratio Tau Onset given CN1CCN2c3ncccc3Cc3ccccc3C2C1 (stereo not drawn) as the entry.
RESULT: 0.846

QUERY: Tell me its Ratio Tau Onset given CNCCC(Oc1ccccc1OC)c1ccccc1 (stereo not drawn) as the entry.
RESULT: 2.263

QUERY: Tell me its Ratio Tau Onset given C[Si](C)(Cc1ccc(F)cc1)CN1CCCCC1 as the entry.
RESULT: 1.282

QUERY: Tell me its Ratio Tau Onset given Nc1c(Br)cc(Br)cc1CN[C@H]1CC[C@H](O)CC1 as the entry.
RESULT: 0.754

QUERY: Tell me its Ratio Tau Onset given Cc1ccc(C(=O)C(C)CN2CCCCC2)cc1 (stereo not drawn) as the entry.
RESULT: 1.385

QUERY: Tell me its Ratio Tau Onset given COc1ccccc1OCC(O)CN1CCN(CC(=O)Nc2c(C)cccc2C)CC1 (stereo not drawn) as the entry.
RESULT: 1.056

====

system-under-test: rNav1.2 sodium channels (Rattus norvegicus)
Construct: host or cells: HEK-293
protocol-text: QPatch automated patch clamp, inhibition of sodium currents evoked by 5 Hz trains at three extracellular pH values
Format: cell-based
test-parameters: pH 6.0/7.3; cc 100 mM
Classification field: condition met = Ratio Tau Offset at or over 1; condition not met = Ratio Tau Offset under 1.

QUERY: Determine whether measured Ratio Tau Offset meets or exceeds 1 for Nc1c(Br)cc(Br)cc1CN[C@H]1CC[C@H](O)CC1
RESULT: condition not met

QUERY: Determine whether measured Ratio Tau Offset meets or exceeds 1 for Cc1ccc(C(=O)C(C)CN2CCCCC2)cc1 (stereo not drawn)
RESULT: condition met

QUERY: Determine whether measured Ratio Tau Offset meets or exceeds 1 for C[Si](C)(Cc1ccc(F)cc1)CN1CCCCC1
RESULT: condition met

QUERY: Determine whether measured Ratio Tau Offset meets or exceeds 1 for COc1ccc(C(CN(C)C)C2(O)CCCCC2)cc1 (stereo not drawn)
RESULT: condition met

QUERY: Determine whether measured Ratio Tau Offset meets or exceeds 1 for CC12CC3CC(C)(C1)CC(N)(C3)C2 [memantine]
RESULT: condition not met

QUERY: Determine whether measured Ratio Tau Offset meets or exceeds 1 for CNCCC(Oc1ccccc1OC)c1ccccc1 (stereo not drawn)
RESULT: condition not met

QUERY: Determine whether measured Ratio Tau Offset meets or exceeds 1 for CCCCN1CCCCC1C(=O)Nc1c(C)cccc1C (stereo not drawn)
RESULT: condition met

QUERY: Determine whether measured Ratio Tau Offset meets or exceeds 1 for CN1CCN2c3ncccc3Cc3ccccc3C2C1 (stereo not drawn)
RESULT: condition met

QUERY: Determine whether measured Ratio Tau Offset meets or exceeds 1 for COc1ccccc1OCC(O)CN1CCN(CC(=O)Nc2c(C)cccc2C)CC1 (stereo not drawn)
RESULT: condition met
